Measured IC50 by item
Target of assay: human JAK3 (a.a. 781-1124) (Homo sapiens, UniProt P52333)
Construct: JAK3 (a.a. 781-1124); His tag (N); made in house; host or cells: insect cells (baculovirus)
Sequence (P52333 781-1124): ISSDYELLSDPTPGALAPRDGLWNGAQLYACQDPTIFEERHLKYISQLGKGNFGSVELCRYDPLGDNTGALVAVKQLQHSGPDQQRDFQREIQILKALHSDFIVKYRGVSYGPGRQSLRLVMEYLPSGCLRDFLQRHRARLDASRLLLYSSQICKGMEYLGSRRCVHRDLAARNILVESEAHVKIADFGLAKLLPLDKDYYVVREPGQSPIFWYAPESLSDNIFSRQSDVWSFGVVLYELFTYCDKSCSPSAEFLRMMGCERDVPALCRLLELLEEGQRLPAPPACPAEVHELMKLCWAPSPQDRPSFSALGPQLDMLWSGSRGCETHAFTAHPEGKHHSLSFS
Measurement protocol: In vitro JAK kinase assay (HTRF, phosphorylation of a biotinylated peptide), JAK3
Format: biochemical
Experimental setup: Table B1
Counter-ions that a name gives are not always drawn.

{"Compound": "O=C(Nc1ccc2cc1CCc1cncc(c1)Nc1ncc(Cl)c(n1)N2)N1CCN(c2ccncc2)CC1 [Example B293, (trifluoroacetate)]", "Target of assay": "human JAK3 (a.a. 781-1124) (Homo sapiens, UniProt P52333)", "Value units": "µM", "Cmp": ">", "IC50": 0.2}
{"Compound": "O=C(Nc1ccc2cc1CCc1cccc(c1)Nc1ncc(Cl)c(n1)N2)Nc1c(Cl)cccc1Cl [Example B113, trifluoroacetate]", "Target of assay": "human JAK3 (a.a. 781-1124) (Homo sapiens, UniProt P52333)", "Value units": "µM", "Cmp": "=", "IC50": 0.048}
{"Compound": "Cc1cccc(S(=O)(=O)Nc2ccc3cc2CCc2cccc(c2)Nc2ncc(Cl)c(n2)N3)c1 [Example B148, trifluoroacetate]", "Target of assay": "human JAK3 (a.a. 781-1124) (Homo sapiens, UniProt P52333)", "Value units": "µM", "Cmp": "=", "IC50": 0.0011}
{"Compound": "O=S(=O)(c1ccc(Cl)cc1)c1ccc(CN2CCN(Cc3cc4cc(c3)Nc3nc(ncc3Cl)Nc3cccc(c3)CC4)CC2)cc1 [Example B195, tris(trifluoroacetate)]", "Target of assay": "human JAK3 (a.a. 781-1124) (Homo sapiens, UniProt P52333)", "Value units": "µM", "Cmp": ">", "IC50": 1}
{"Compound": "O=C(Nc1ccccc1)c1ccc2cc1CCc1cccc(c1)Nc1ncc(Cl)c(n1)N2 [Example B200, trifluoroacetate]", "Target of assay": "human JAK3 (a.a. 781-1124) (Homo sapiens, UniProt P52333)", "Value units": "µM", "Cmp": "=", "IC50": 0.118}
{"Compound": "O=C(O)c1cccc(S(=O)(=O)Nc2ccc3cc2CCc2cccc(c2)Nc2ncc(Cl)c(n2)N3)c1 [Example B159, trifluoroacetate]", "Target of assay": "human JAK3 (a.a. 781-1124) (Homo sapiens, UniProt P52333)", "Value units": "µM", "Cmp": "=", "IC50": 0.0031}
{"Compound": "CC(C)(C)c1ccc(C(=O)Nc2ccc3cc2CCc2cccc(c2)Nc2ncc(Cl)c(n2)N3)cc1 [Example B73, trifluoroacetate]", "Target of assay": "human JAK3 (a.a. 781-1124) (Homo sapiens, UniProt P52333)", "Value units": "µM", "Cmp": "=", "IC50": 0.178}
{"Compound": "O=C(Nc1ccc2cc1CCc1cncc(c1)Nc1ncc(Cl)c(n1)N2)N1CCN(c2ccccc2F)CC1 [Example B295, tris(trifluoroacetate)]", "Target of assay": "human JAK3 (a.a. 781-1124) (Homo sapiens, UniProt P52333)", "Value units": "µM", "Cmp": ">", "IC50": 0.2}
{"Compound": "CS(=O)(=O)Nc1ccc2cc1CCc1cccc(c1)Nc1ncc(Cl)c(n1)N2 [Example B140, trifluoroacetate]", "Target of assay": "human JAK3 (a.a. 781-1124) (Homo sapiens, UniProt P52333)", "Value units": "µM", "Cmp": "=", "IC50": 0.0013}
{"Compound": "O=C(Nc1ccc2cc1CCc1cncc(c1)Nc1ncc(Cl)c(n1)N2)N1CCN2CCCC2C1 (centres unmarked) [Example B315, tris(trifluoroacetate)]", "Target of assay": "human JAK3 (a.a. 781-1124) (Homo sapiens, UniProt P52333)", "Value units": "µM", "Cmp": ">", "IC50": 0.4}
{"Compound": "CC(C)(C)OC(=O)N[C@@H]1CCN(C(=O)Nc2ccc3cc2CCc2cccc(c2)Nc2ncc(Cl)c(n2)N3)C1", "Target of assay": "human JAK3 (a.a. 781-1124) (Homo sapiens, UniProt P52333)", "Value units": "µM", "Cmp": "=", "IC50": 0.0097}
{"Compound": "N#Cc1cccc(C(=O)Nc2ccc3cc2CCc2cccc(c2)Nc2ncc(Cl)c(n2)N3)c1 [Example B65, trifluoroacetate]", "Target of assay": "human JAK3 (a.a. 781-1124) (Homo sapiens, UniProt P52333)", "Value units": "µM", "Cmp": "=", "IC50": 0.0088}
{"Compound": "O=C(Nc1ccc2c(c1)CCC2)Nc1ccc2cc1CCc1cccc(c1)Nc1ncc(Cl)c(n1)N2 [Example B103, trifluoroacetate]", "Target of assay": "human JAK3 (a.a. 781-1124) (Homo sapiens, UniProt P52333)", "Value units": "µM", "Cmp": "=", "IC50": 0.124}
{"Compound": "Clc1cnc2nc1Nc1cc(cc(CN3CCNCC3)c1)CCc1cccc(c1)N2 [Example B191, dihydrochloride]", "Target of assay": "human JAK3 (a.a. 781-1124) (Homo sapiens, UniProt P52333)", "Value units": "µM", "Cmp": "=", "IC50": 0.205}
{"Compound": "Cc1ccc(NC(=O)Nc2ccc3cc2CCc2cccc(c2)Nc2ncc(Cl)c(n2)N3)cc1 [Example B92, trifluoroacetate]", "Target of assay": "human JAK3 (a.a. 781-1124) (Homo sapiens, UniProt P52333)", "Value units": "µM", "Cmp": "=", "IC50": 0.061}
{"Compound": "Clc1cnc2nc1Nc1ccc(Nc3nccc(-c4ccccc4)n3)c(c1)CCc1cccc(c1)N2 [Example B279, tris(trifluoroacetate)]", "Target of assay": "human JAK3 (a.a. 781-1124) (Homo sapiens, UniProt P52333)", "Value units": "µM", "Cmp": ">", "IC50": 10}
{"Compound": "O=S(=O)(Nc1cc2cc(c1)Nc1nc(ncc1Cl)Nc1cccc(c1)CC2)c1ccccc1 [Example B203, trifluoroacetate]", "Target of assay": "human JAK3 (a.a. 781-1124) (Homo sapiens, UniProt P52333)", "Value units": "µM", "Cmp": "=", "IC50": 0.102}
{"Compound": "O=C(Nc1ccc2cc1CCc1cccc(c1)Nc1ncc(Cl)c(n1)N2)c1cccc(C(F)(F)F)c1 [Example B76, trifluoroacetate]", "Target of assay": "human JAK3 (a.a. 781-1124) (Homo sapiens, UniProt P52333)", "Value units": "µM", "Cmp": "=", "IC50": 0.061}
{"Compound": "O=C(Nc1ccc2cc1CCc1cncc(c1)Nc1ncc(Cl)c(n1)N2)N1CCN(c2ncccn2)CC1 [Example B309, tris(trifluoroacetate)]", "Target of assay": "human JAK3 (a.a. 781-1124) (Homo sapiens, UniProt P52333)", "Value units": "µM", "Cmp": ">", "IC50": 0.4}
{"Compound": "Oc1ccnc(Nc2ccc3cc2CCc2cccc(c2)Nc2ncc(Cl)c(n2)N3)n1 [Example B277, bis(trifluoroacetate)]", "Target of assay": "human JAK3 (a.a. 781-1124) (Homo sapiens, UniProt P52333)", "Value units": "µM", "Cmp": "=", "IC50": 0.359}
{"Compound": "O=C(Nc1ccc2cc1CCc1cncc(c1)Nc1ncc(Cl)c(n1)N2)N[C@H]1CCN(C(=O)c2ccno2)C1 [Example B271, bis(trifluoroacetate)]", "Target of assay": "human JAK3 (a.a. 781-1124) (Homo sapiens, UniProt P52333)", "Value units": "µM", "Cmp": ">", "IC50": 10}
{"Compound": "COc1ccc(N2CCN(C(=O)Nc3ccc4cc3CCc3cncc(c3)Nc3ncc(Cl)c(n3)N4)CC2)cc1 [Example B299, tris(trifluoroacetate)]", "Target of assay": "human JAK3 (a.a. 781-1124) (Homo sapiens, UniProt P52333)", "Value units": "µM", "Cmp": ">", "IC50": 0.4}
{"Compound": "CNC(=O)N1CC[C@H](NC(=O)Nc2ccc3cc2CCc2cccc(c2)Nc2ncc(Cl)c(n2)N3)C1", "Target of assay": "human JAK3 (a.a. 781-1124) (Homo sapiens, UniProt P52333)", "Value units": "µM", "Cmp": "=", "IC50": 0.047}
{"Compound": "Nc1ccc2cc1CCc1cncc(c1)Nc1ncc(Cl)c(n1)N2 [Example B20, tris(trifluoroacetate)]", "Target of assay": "human JAK3 (a.a. 781-1124) (Homo sapiens, UniProt P52333)", "Value units": "µM", "Cmp": "=", "IC50": 0.0067}
{"Compound": "O=C(Nc1ccc2cc1CCc1cncc(c1)Nc1ncc(Cl)c(n1)N2)N1CCN(c2ccccn2)CC1 [Example B289, tris(trifluoroacetate)]", "Target of assay": "human JAK3 (a.a. 781-1124) (Homo sapiens, UniProt P52333)", "Value units": "µM", "Cmp": ">", "IC50": 0.2}
{"Compound": "Cn1ccc(C(=O)Nc2ccc3cc2CCc2cccc(c2)Nc2ncc(Cl)c(n2)N3)n1 [Example B31, trifluoroacetate]", "Target of assay": "human JAK3 (a.a. 781-1124) (Homo sapiens, UniProt P52333)", "Value units": "µM", "Cmp": "=", "IC50": 0.069}
